Listing: viability, T/C of selected compounds
system: 695427-040-R-J1-PDC complex spheroid viability; experiment: Anticancer human tumor 695427-040-R-J1-PDC patient-derived colon adenocarcinoma cell line growth inhibition [POLQ]; conditions: second compound 10 µM; first compound 10 µM; stronger effect = lower value
The reply should be a number in %, with the unit left off.

Example entries and their recorded answers appear below.
compound	viability, T/C / %
C#Cc1c(F)ccc2cc(O)cc(-c3ncc4c(N5CC6CCC(C5)N6)nc(OCC56CCCN5CC(F)C6)nc4c3F)c12 (centres undefined) + COC1C(OC(N)=O)C(O)C(Oc2ccc3c(O)c(NC(=O)c4ccc(O)c(CC=C(C)C)c4)c(=O)oc3c2C)OC1(C)C	80.4
COc1cc2cc(C(=O)CCC(=O)O)sc2cc1OC + Nc1ccc(C#CCN(C(=O)Cc2ncc(C(F)(F)F)cc2C(F)(F)F)c2ccc(F)cc2)nn1	102
Nc1ccn(C2OC(CO)C(O)C2(F)F)c(=O)n1 (centres undefined) + Cc1cccc(N(C)C(=O)C2C(O)CCN2c2nc(C)cc(C(F)(F)F)c2C#N)c1	58.5

Now take the following compound into account.
Lab note: O=c1[nH]cc(F)c(=O)[nH]1 + Cc1cccc(N(C)C(=O)C2C(O)CCN2c2nc(C)cc(C(F)(F)F)c2C#N)c1 gave viability, T/C of 84.8

----------
system: 695427-040-R-J1-PDC complex spheroid viability; experiment: Anticancer human tumor 695427-040-R-J1-PDC cell line growth inhibition [POLQ]; conditions: curve of first compound; second compound 0.0316 µM;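 further: spheroids exposed to compounds for seven days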
pIC50: −log10 of the molar value.
Item-by-item account of pIC50

Some compounds with known pIC50 results, for comparison:
compound	target under test	parameter measured	measured
CCc1cc2c(N3CCc4c(cc(Cn5ccnc5)cc4-c4cn(C)nc4C(F)(F)F)C3=O)cc(C)nc2c(OC)n1 + Cc1cccc(N(C)C(=O)C2C(O)CCN2c2nc(C)cc(C(F)(F)F)c2C#N)c1	695427-040-R-J1-PDC complex spheroid viability	pIC50	< 5.00
Nc1ccn(C2OC(CO)C(O)C2(F)F)c(=O)n1 (centres undefined) + Nc1ccc(C#CCN(C(=O)Cc2ncc(C(F)(F)F)cc2C(F)(F)F)c2ccc(F)cc2)nn1	695427-040-R-J1-PDC complex spheroid viability	pIC50	< 5.00
O=C(Nc1ccc(O)c(NS(=O)(=O)c2ccc(F)cc2)c1)c1ccc(-c2ccccc2)cc1 + COC1C(OC(N)=O)C(O)C(Oc2ccc3c(O)c(NC(=O)c4ccc(O)c(CC=C(C)C)c4)c(=O)oc3c2C)OC1(C)C	695427-040-R-J1-PDC complex spheroid viability	pIC50	< 5.00
CCc1c2c(nc3ccc(O)cc13)-c1cc3c(c(=O)n1C2)COC(=O)[C@]3(O)CC + COC1C(OC(N)=O)C(O)C(Oc2ccc3c(O)c(NC(=O)c4ccc(O)c(CC=C(C)C)c4)c(=O)oc3c2C)OC1(C)C	695427-040-R-J1-PDC complex spheroid viability	pIC50	6.01

Entry O=C(c1cc(Cc2n[nH]c(=O)c3ccccc23)ccc1F)N1CCN(C(=O)C2CC2)CC1 + COC1C(OC(N)=O)C(O)C(Oc2ccc3c(O)c(NC(=O)c4ccc(O)c(CC=C(C)C)c4)c(=O)oc3c2C)OC1(C)C , pIC50 reported as < 5.00

Value of pIC50 reported for the compound CCc1cc2c(N3CCc4c(cc(Cn5ccnc5)cc4-c4cn(C)nc4C(F)(F)F)C3=O)ccnc2c(OC)n1 + Nc1ccc(C#CCN(C(=O)Cc2ncc(C(F)(F)F)cc2C(F)(F)F)c2ccc(F)cc2)nn1 is < 5.00

Entry CNCc1ccc(-c2[nH]c3cc(F)cc4c3c2CCNC4=O)cc1 + Cc1cccc(N(C)C(=O)C2C(O)CCN2c2nc(C)cc(C(F)(F)F)c2C#N)c1 , pIC50 reported as < 5.00

The recorded pIC50 for entry COc1ccc([C@@H](O)c2cc(-c3ncnc4cc(N5CCOCC5)ccc34)c(F)cc2Cl)nn1 + COC1C(OC(N)=O)C(O)C(Oc2ccc3c(O)c(NC(=O)c4ccc(O)c(CC=C(C)C)c4)c(=O)oc3c2C)OC1(C)C equals < 5.00

For this compound ( CCc1cc2c(N3CCc4c(cc(Cn5ccnc5)cc4-c4cn(C)nc4C(F)(F)F)C3=O)cc(C)nc2c(OC)n1 + Nc1ccc(C#CCN(C(=O)Cc2ncc(C(F)(F)F)cc2C(F)(F)F)c2ccc(F)cc2)nn1 ), measured pIC50 is < 5.00

# pIC50 of Cn1ncnc1[C@H]1c2n[nH]c(=O)c3cc(F)cc(c23)N[C@@H]1c1ccc(F)cc1 + Cc1cccc(N(C)C(=O)C2C(O)CCN2c2nc(C)cc(C(F)(F)F)c2C#N)c1 = < 7.00

Value of pIC50 reported for the compound O=C(Nc1ccc(O)c(NS(=O)(=O)c2ccc(F)cc2)c1)c1ccc(-c2ccccc2)cc1 + Cc1cccc(N(C)C(=O)C2C(O)CCN2c2nc(C)cc(C(F)(F)F)c2C#N)c1 is < 5.00

----------
test system: 695427-040-R-J1-PDC complex spheroid viability; assay: Anticancer human tumor 695427-040-R-J1-PDC cell line growth inhibition [POLQ]; settings: second compound 1 µM; first compound 10 µM; stronger effect = lower value;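 further: spheroids exposed to compounds for seven days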;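 on viability, T/C: 100% = DMSO vehicle control viability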
parameter measured: viability, T/C (%)
Write the answer as a number in %, unit excluded.

Example results:
compound	target under test	viability, T/C [%]
C#Cc1c(F)ccc2cc(O)cc(-c3ncc4c(N5CC6CCC(C5)N6)nc(OCC56CCCN5CC(F)C6)nc4c3F)c12 (stereo not drawn) + COC1C(OC(N)=O)C(O)C(Oc2ccc3c(O)c(NC(=O)c4ccc(O)c(CC=C(C)C)c4)c(=O)oc3c2C)OC1(C)C	695427-040-R-J1-PDC complex spheroid viability	91
O=c1[nH]cc(F)c(=O)[nH]1 + Cc1cccc(N(C)C(=O)C2C(O)CCN2c2nc(C)cc(C(F)(F)F)c2C#N)c1	695427-040-R-J1-PDC complex spheroid viability	88.4

response.value for O=C(c1cc(Cc2n[nH]c(=O)c3ccccc23)ccc1F)N1CCN(C(=O)C2CC2)CC1 + Cc1cccc(N(C)C(=O)C2C(O)CCN2c2nc(C)cc(C(F)(F)F)c2C#N)c1 (field: viability, T/C) = 91.2

----------
test system: 695427-040-R-J1-PDC complex spheroid viability; assay: Anticancer human tumor 695427-040-R-J1-PDC cell line growth inhibition [POLQ]; details: second compound 10 µM; first compound 0.0316 µM; stronger effect = lower value;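 further: spheroids exposed to compounds for seven days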;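 on viability, T/C: 100% = DMSO vehicle control viability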
Below, each entry is listed alongside its reported viability, T/C.
Just the number please, in %, no unit attached.

For orientation, consider the following solved cases.
molecule	unit info	viability, T/C
O=C(Nc1ccc(O)c(NS(=O)(=O)c2ccc(F)cc2)c1)c1ccc(-c2ccccc2)cc1 + Nc1ccc(C#CCN(C(=O)Cc2ncc(C(F)(F)F)cc2C(F)(F)F)c2ccc(F)cc2)nn1	%	99
C=CCn1c(=O)c2cnc(Nc3ccc(N4CCN(C)CC4)cc3)nc2n1-c1cccc(C(C)(C)O)n1 + Cc1cccc(N(C)C(=O)C2C(O)CCN2c2nc(C)cc(C(F)(F)F)c2C#N)c1	%	87.7
COc1cc(C2c3cc4c(cc3C(OC3OC5COC(C)OC5C(O)C3O)C3COC(=O)C23)OCO4)cc(OC)c1O (centres undefined) + Cc1cccc(N(C)C(=O)C2C(O)CCN2c2nc(C)cc(C(F)(F)F)c2C#N)c1	%	98
C#Cc1c(F)ccc2cc(O)cc(-c3ncc4c(N5CC6CCC(C5)N6)nc(OCC56CCCN5CC(F)C6)nc4c3F)c12 (centres undefined) + Cc1cccc(N(C)C(=O)C2C(O)CCN2c2nc(C)cc(C(F)(F)F)c2C#N)c1	%	92.8

COc1cccc2c1C(=O)c1c(O)c3c(c(O)c1C2=O)CC(O)(C(=O)CO)CC3OC1CC(N)C(O)C(C)O1 (centres undefined) + Nc1ccc(C#CCN(C(=O)Cc2ncc(C(F)(F)F)cc2C(F)(F)F)c2ccc(F)cc2)nn1 on 695427-040-R-J1-PDC complex spheroid viability gives viability, T/C = 95.8

----------
Listed below: viability, T/C values for each entry.
tested on: 695427-040-R-J1-PDC complex spheroid viability; experiment: Anticancer human tumor 695427-040-R-J1-PDC cell line growth inhibition [POLQ]; settings: second compound 10 µM; first compound 0.0316 µM; stronger effect = lower value;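 further: spheroids exposed to compounds for seven days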;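 on viability, T/C: 100% = DMSO vehicle control viability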
Write down the numeric answer in % and omit the unit.

# count of solved cases: 2
compound	viability, T/C, %
CNCc1ccc(-c2[nH]c3cc(F)cc4c3c2CCNC4=O)cc1 + Cc1cccc(N(C)C(=O)C2C(O)CCN2c2nc(C)cc(C(F)(F)F)c2C#N)c1	92.3
C=CC(=O)N1CCN(c2nc(=O)n(-c3c(C)ccnc3C(C)C)c3nc(-c4c(O)cccc4F)c(F)cc23)C(C)C1 (stereo not drawn) + COC1C(OC(N)=O)C(O)C(Oc2ccc3c(O)c(NC(=O)c4ccc(O)c(CC=C(C)C)c4)c(=O)oc3c2C)OC1(C)C	111

Now look at this entry.
Entry C=CC(=O)N1CCN(c2nc(=O)n(-c3c(C)ccnc3C(C)C)c3nc(-c4c(O)cccc4F)c(F)cc23)C(C)C1 (stereo not drawn) + Cc1cccc(N(C)C(=O)C2C(O)CCN2c2nc(C)cc(C(F)(F)F)c2C#N)c1 ; viability, T/C = 87.8
